Biological target: GLUT1 (Homo sapiens)
Sequence (P11166 1-492): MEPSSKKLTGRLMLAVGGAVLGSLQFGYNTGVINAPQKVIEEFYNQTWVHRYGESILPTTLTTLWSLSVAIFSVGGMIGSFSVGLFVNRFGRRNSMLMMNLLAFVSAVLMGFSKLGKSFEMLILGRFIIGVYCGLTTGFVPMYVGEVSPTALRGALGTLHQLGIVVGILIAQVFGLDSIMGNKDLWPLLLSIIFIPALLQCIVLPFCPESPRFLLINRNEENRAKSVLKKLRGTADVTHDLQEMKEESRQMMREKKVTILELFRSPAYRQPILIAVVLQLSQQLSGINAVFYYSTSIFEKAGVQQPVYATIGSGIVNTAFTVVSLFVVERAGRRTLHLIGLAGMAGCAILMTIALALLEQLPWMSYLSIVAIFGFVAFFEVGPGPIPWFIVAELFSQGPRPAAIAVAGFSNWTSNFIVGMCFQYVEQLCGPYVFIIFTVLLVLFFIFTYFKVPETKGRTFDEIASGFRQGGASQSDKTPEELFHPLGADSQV
Assay: Indirect measurement of GLUT1 activity by quantification of intracellular ATP levels (glucose induced ATP increase)
Type: cell-based
Set-up: endogenous in cells; host or cells: DLD1 or CHO-K1
Details: read-out: IC50 regarding glucose induced ATP increase (GLUT1 inhibition)
Measured Attribute: IC50 (nM)

INSERT INTO measurements (molecule, system, endpoint_unit, experimental_result) VALUES
  ('Cc1c(NC(=O)c2cc(C(N)=O)nc3ccccc23)c(C(F)(F)F)nn1Cc1cc(C#N)no1 [Example 1672]', 'GLUT1 (Homo sapiens)', 'nM', 151),
  ('Cc1nn(Cc2ccc(C(=O)NCc3ccccc3)cn2)c(C)c1NC(=O)c1cc(C(F)(F)F)nc2ccc(Br)cc12 [Example 1151]', 'GLUT1 (Homo sapiens)', 'nM', 128),
  ('Cc1ccc2nc(C)cc(C(=O)Nc3c(C)nn(Cc4ccc(F)cc4)c3C)c2c1 [Example 62]', 'GLUT1 (Homo sapiens)', 'nM', 127);

# credit: patent US20170037028A1
